- target or test system: T1, hPRLR.mFc (soluble dimeric human PRLR) (human)
- T1 construct: dimeric construct
- T1 chain: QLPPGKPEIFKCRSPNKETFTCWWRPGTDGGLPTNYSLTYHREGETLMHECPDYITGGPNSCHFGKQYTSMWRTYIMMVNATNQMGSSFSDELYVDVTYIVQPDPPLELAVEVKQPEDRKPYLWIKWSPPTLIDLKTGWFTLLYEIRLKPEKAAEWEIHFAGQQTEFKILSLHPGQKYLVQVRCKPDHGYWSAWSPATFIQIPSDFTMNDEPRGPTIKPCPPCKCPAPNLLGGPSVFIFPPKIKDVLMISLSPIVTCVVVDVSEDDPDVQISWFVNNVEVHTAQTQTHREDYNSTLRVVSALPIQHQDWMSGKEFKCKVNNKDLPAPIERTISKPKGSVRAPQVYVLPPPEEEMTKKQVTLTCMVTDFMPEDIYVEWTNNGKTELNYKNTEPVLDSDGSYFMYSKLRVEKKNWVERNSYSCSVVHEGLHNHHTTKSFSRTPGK
- measurement protocol: SPR, 37C, mAb capture
Reported T½ values are given for each entry in this list.
assay endpoint: T½

H1H6793P (antibody, human IgG1, V domains shown, human IgG1 Fc (H1H)) VH: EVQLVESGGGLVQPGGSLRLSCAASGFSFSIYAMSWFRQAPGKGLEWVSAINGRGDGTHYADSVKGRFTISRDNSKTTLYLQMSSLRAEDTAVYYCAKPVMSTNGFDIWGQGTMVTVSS VL: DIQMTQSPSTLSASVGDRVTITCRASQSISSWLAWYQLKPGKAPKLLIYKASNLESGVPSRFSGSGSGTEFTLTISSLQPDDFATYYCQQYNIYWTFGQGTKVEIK = 1.35 h
H1H6958N2 (antibody, human IgG1, V domains shown, also called H2M6958N2) VH: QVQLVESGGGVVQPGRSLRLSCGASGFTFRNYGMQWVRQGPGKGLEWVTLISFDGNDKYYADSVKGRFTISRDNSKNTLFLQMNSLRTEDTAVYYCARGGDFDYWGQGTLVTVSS VL: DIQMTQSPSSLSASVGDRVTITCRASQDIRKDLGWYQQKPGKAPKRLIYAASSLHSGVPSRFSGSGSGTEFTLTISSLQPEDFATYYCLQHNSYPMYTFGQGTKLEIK = 1.39 h
